Recorded AC50, one value per entry.
Experimental target: human NPR1 (Homo sapiens, UniProt P16066)
Construct: host or cells: CHO-K1
Sequence (P16066 33-1061): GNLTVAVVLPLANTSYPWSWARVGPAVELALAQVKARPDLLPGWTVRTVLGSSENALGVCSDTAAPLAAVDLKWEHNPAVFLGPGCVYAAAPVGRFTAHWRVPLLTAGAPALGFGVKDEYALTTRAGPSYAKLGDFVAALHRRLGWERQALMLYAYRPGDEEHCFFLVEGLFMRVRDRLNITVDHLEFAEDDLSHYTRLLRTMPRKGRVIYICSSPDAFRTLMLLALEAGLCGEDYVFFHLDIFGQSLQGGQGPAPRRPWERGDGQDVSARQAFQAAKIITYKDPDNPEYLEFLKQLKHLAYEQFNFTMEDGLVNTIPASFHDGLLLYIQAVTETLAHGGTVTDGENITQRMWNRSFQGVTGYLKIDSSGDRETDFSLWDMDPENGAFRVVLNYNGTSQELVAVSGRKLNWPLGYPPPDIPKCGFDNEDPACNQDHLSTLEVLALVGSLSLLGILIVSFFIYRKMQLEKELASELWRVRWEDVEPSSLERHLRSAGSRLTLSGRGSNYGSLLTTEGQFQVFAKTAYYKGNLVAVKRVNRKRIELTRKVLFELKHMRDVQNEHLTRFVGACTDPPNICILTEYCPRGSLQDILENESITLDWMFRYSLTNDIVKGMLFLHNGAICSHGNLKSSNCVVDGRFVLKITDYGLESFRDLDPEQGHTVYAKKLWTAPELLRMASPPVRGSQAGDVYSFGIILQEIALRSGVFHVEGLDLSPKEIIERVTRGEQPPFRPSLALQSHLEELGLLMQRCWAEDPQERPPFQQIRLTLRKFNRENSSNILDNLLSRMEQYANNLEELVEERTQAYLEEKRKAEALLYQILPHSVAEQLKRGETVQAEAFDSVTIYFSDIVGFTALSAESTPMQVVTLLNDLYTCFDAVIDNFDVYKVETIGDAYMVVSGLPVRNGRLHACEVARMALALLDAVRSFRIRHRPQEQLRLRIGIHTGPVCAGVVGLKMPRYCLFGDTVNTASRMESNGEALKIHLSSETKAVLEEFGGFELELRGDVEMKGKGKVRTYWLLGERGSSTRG
Test method notes: Cellular cGMP production assay, human NPR1 expressing CHO-K1 cells (CisBio HTRF)
Assay type: cell-based
Details: cGMP production, 30 min at 37° C., 12-point dose-response from 30 μM
Quick note: unit goes after the number.

// query Quote human NPR1 (Homo sapiens, UniProt P16066) AC50 for entry CC[C@H]([C@H]1CC[C@H](C(=O)O)CC1)N(C)c1nc2c(c(N[C@@H](CN3C4CCCC3CC4)c3ccn(C)n3)n1)C[C@H](c1cccc(F)c1)CC2 .
// result 396 nM

// query Fill in: AC50 on human NPR1 (Homo sapiens, UniProt P16066), entry CC[C@H]([C@H]1CC[C@H](C(=O)O)CC1)N(C)c1nc2c(c(N[C@@H](CN3CCC[C@H]4C[C@H]43)c3cnn(C)c3)n1)C[C@H](c1ccccc1)CC2
// result 359 nM

// query # lookup: human NPR1 (Homo sapiens, UniProt P16066) AC50, key = CC[C@H]([C@H]1CC[C@H](C(=O)O)CC1)N(C)c1nc2c(c(N[C@@H](CN3C4CCCC3CC4)c3ccnn3C)n1)C[C@H](c1cccc(F)c1)CC2
// result 1780 nM
